Tested on: Staphylococcus epidermidis
assay_method_text: Antibacterial activity against erythromycin-resistant Staphylococcus epidermidis 19-9 assessed as inhibition of visible bacterial growth incubated for 18 hrs by broth microdilution method
Assay type: functional
result_type: MIC (µg/mL)
Express the result in µg/mL but write the number alone.

Query: What MIC value was documented for this molecule, CC[C@H]1OC(=O)[C@@](C)(F)C(=O)[C@H](C)[C@@H](O[C@@H]2O[C@H](C)C[C@H](N(C)C)[C@H]2O)[C@](C)(OC)C[C@@H](C)C(=O)[C@H](C)[C@H]2N(CCCOC(=O)Nc3cccc4ccccc34)C(=O)O[C@]12C ?
Response: 0.125

Query: What MIC value was documented for this molecule, CC[C@H]1OC(=O)[C@@](C)(F)C(=O)[C@H](C)[C@@H](O[C@@H]2O[C@H](C)C[C@H](N(C)C)[C@H]2O)[C@](C)(OC)C[C@@H](C)C(=O)[C@H](C)[C@H]2N(CCCOC(=O)Nc3ccccc3OC)C(=O)O[C@]12C ?
Response: 0.25

Query: What MIC value was documented for this molecule, CC[C@H]1OC(=O)[C@@](C)(F)C(=O)[C@H](C)[C@@H](O[C@@H]2O[C@H](C)C[C@H](N(C)C)[C@H]2O)[C@](C)(OC)C[C@@H](C)C(=O)[C@H](C)[C@H]2N(CCCOC(=O)Nc3ccc4c(c3)CCO4)C(=O)O[C@]12C ?
Response: 0.06

Query: What MIC value was documented for this molecule, CC[C@H]1OC(=O)[C@H](C)C(=O)[C@H](C)[C@@H](O[C@@H]2O[C@H](C)C[C@H](N(C)C)[C@H]2O)[C@](C)(OC)C[C@@H](C)C(=O)[C@H](C)[C@H]2N(CCCOC(=O)Nc3cccc(C)c3)C(=O)O[C@]12C ?
Response: 1

Query: What MIC value was documented for this molecule, CC[C@H]1OC(=O)[C@@](C)(F)C(=O)[C@H](C)[C@@H](O[C@@H]2O[C@H](C)C[C@H](N(C)C)[C@H]2O)[C@](C)(OC)C[C@@H](C)C(=O)[C@H](C)[C@H]2N(CCCOC(=O)Nc3ccc4ccccc4c3)C(=O)O[C@]12C ?
Response: 0.125

Query: What MIC value was documented for this molecule, CC[C@H]1OC(=O)[C@@](C)(F)C(=O)[C@H](C)[C@@H](O[C@@H]2O[C@H](C)C[C@H](N(C)C)[C@H]2O)[C@](C)(OC)C[C@@H](C)C(=O)[C@H](C)[C@H]2N(CCCOC(=O)Nc3cc(C)cc(C)c3)C(=O)O[C@]12C ?
Response: 0.5

----------
Tested on: Staphylococcus epidermidis
assay_method_text: Antibacterial activity against erythromycin-resistant Staphylococcus epidermidis 19-9 assessed as inhibition of visible bacterial growth incubated for 18 hrs by broth microdilution method
Assay type: functional
Assign MIC to each entry below.

Query: What MIC value was documented for this molecule, CC[C@H]1OC(=O)[C@@](C)(F)C(=O)[C@H](C)[C@@H](O[C@@H]2O[C@H](C)C[C@H](N(C)C)[C@H]2O)[C@](C)(OC)C[C@@H](C)C(=O)[C@H](C)[C@H]2N(CCCOC(=O)Nc3cccnc3)C(=O)O[C@]12C ?
Response: 0.5 µg/mL

Query: What MIC value was documented for this molecule, CC[C@H]1OC(=O)[C@@](C)(F)C(=O)[C@H](C)[C@@H](O[C@@H]2O[C@H](C)C[C@H](N(C)C)[C@H]2O)[C@](C)(OC)C[C@@H](C)C(=O)[C@H](C)[C@H]2N(CCCOC(=O)Nc3ccc(-c4ccccc4)cc3)C(=O)O[C@]12C ?
Response: 0.5 µg/mL

Entry source: ChEMBL document CHEMBL5543097
